assay.remarks: Solubility at pH 4
Format: physicochemical
experimental.conditions: buffer
reported.metric: solubility

- smiles.repr: "CCn1cc(-c2ccnc3[nH]c(-c4cccc(CN(C)C)c4)cc23)c(-c2ccc(NC(=O)N(C)C)cc2)n1"
  endpoint.result: "> 10000 µg/mL"

----------
assay.remarks: Volume of distribution at steady state in iv dosed rat
Type: ADME, organism-based
experimental.conditions: in vivo, read-out: Vdss

- smiles.repr: "CCn1cc(-c2ccnc3[nH]ccc23)c(-c2ccc(NC(=O)Nc3ccccc3)cc2)n1"
  unit: "L/kg"
  Vd: 1.7

----------
assay.remarks: Plasma clearance in iv dosed rat
Assay type: ADME, organism-based

- smiles.repr: "CCn1cc(-c2ccnc3[nH]ccc23)c(-c2ccc(NC(=O)Nc3ccccc3)cc2)n1"
  unit: "mL/min/kg"
  clearance: 128
